# targetDesc: rat-species vanilloid receptor 1 (VR1/TRPV1) (Rattus norvegicus)
# Construct: endogenous in cells; host or cells: primary cells dissociated from rat dorsal root ganglia (DRG)
# Sequence (O35433 whole entry): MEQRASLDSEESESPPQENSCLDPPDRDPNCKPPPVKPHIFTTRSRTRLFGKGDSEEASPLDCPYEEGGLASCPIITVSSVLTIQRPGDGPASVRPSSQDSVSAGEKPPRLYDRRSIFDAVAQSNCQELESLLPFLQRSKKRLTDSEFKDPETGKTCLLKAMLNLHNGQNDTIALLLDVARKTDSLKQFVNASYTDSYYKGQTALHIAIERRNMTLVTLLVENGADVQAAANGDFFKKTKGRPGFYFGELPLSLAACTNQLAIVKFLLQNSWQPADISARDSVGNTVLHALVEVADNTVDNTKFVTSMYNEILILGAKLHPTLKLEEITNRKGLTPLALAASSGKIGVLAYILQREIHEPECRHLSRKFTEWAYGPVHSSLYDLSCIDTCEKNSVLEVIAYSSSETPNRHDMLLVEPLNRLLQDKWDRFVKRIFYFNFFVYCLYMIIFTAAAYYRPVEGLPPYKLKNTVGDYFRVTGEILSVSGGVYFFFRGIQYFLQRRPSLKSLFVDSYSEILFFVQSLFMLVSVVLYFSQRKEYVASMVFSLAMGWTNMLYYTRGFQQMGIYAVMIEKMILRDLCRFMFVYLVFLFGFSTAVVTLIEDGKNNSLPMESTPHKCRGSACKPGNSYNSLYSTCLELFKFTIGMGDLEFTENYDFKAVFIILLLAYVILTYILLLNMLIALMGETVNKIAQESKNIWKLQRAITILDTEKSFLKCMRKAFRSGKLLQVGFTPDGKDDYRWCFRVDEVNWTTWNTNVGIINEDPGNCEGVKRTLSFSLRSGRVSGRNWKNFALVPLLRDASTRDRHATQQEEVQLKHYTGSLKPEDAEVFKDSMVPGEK
# assayNotes: Functional testing on vanilloid receptor 1 (VR1/TRPV1): FLIPR Ca2+ inflow assay in rat dorsal root ganglia cells (% activation / % inhibition vs capsaicin)
# Type: cell-based
# particulars: stimulation compared to 10 μM CP (capsaicin)
measurementKind: activation at 10 µM (%)
Field format: number, assumed %, no unit text.

>>> recordednumber("O=C(Nc1ccccc1Oc1ccccc1)N1CCC2(CC1)CC(c1ccc(C(F)(F)F)cc1)=NO2")
-0.47
>>> recordednumber("O=C(Nc1cccc(Br)c1)N1CCC2(CC1)CC(c1ccccc1)=NO2")
-0.17
>>> recordednumber("COc1cccc(C2=NOC3(CCN(C(=O)Nc4ccc(Cl)cc4)CC3)C2)c1")
0.11
>>> recordednumber("O=C(Nc1ccc(Br)cc1)N1CCC2(CC1)CC(c1ccccc1)=NO2")
-0.35
>>> recordednumber("COc1cccc(C2=NOC3(CCN(C(=O)/C=C/c4ccc(C(F)(F)F)nc4N4CCOCC4)CC3)C2)c1")
0
>>> recordednumber("COc1cccc(C2=NOC3(CCN(C(=O)/C=C/c4ccc(C(F)(F)F)nc4)CC3)C2)c1")
-1
>>> recordednumber("O=C(/C=C/c1ccc(C(F)(F)F)nc1N1CCCCC1)N1CCC2(CC1)CC(c1cccc(F)c1)=NO2")
0
>>> recordednumber("COc1cccc(C2=NOC3(CCN(C(=O)Nc4ccc(OC(F)(F)F)cc4)CC3)C2)c1")
9.79

Please turn your attention to the following entry.
# query: activation at 10 µM of entry `CC(C)(C)c1ccc(C2=NOC3(CCN(C(=O)Nc4ccc(Cl)cc4)CC3)C2)cc1`
-0.73

---

Each record here notes measured inhibition at 10 µM.
# targetDesc: vanilloid receptor (VR1) (Homo sapiens, UniProt Q8NER1)
# Construct: expressed in transfected cells; host or cells: CHO K1 cells (ECACC), stably transfected
# Sequence (Q8NER1 whole entry): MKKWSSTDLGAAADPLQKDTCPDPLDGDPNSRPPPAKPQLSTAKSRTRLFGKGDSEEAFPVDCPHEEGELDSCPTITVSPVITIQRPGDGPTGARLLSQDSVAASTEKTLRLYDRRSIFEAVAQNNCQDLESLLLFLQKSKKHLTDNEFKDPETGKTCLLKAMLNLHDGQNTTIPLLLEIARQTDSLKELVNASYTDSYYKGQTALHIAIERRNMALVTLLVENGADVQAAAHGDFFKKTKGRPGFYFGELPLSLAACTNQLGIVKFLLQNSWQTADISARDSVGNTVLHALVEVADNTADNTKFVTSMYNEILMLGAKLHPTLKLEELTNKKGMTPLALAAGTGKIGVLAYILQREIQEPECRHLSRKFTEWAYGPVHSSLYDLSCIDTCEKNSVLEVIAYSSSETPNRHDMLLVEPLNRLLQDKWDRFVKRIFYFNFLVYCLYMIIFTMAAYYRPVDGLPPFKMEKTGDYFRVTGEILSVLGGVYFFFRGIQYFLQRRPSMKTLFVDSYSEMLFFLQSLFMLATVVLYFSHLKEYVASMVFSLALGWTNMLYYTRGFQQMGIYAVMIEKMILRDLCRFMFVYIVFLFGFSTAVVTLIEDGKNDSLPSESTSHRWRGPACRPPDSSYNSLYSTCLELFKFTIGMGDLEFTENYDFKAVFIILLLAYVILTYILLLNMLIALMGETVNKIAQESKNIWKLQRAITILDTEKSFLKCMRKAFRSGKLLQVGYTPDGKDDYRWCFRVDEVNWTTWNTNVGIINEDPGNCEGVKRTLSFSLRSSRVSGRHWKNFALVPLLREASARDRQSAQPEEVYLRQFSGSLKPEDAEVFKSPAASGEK
# assayNotes: Functional testing on vanilloid receptor (VR1): FLIPR Ca2+ inflow assay in CHO K1 cells stably transfected with the VR1 gene
# Format: cell-based
# particulars: CHO-K1, inhibition compared to 10 μM CP (capsaicin)
The answer is to be given in %; state only the numeric part.

>>> recordednumber("COc1cccc(NC(=O)N2CCC3(CC2)CC(c2ccccc2)=NO3)c1 [Compound 205]")
-23.9

Any idea what inhibition at 10 µM was measured for CC(C)(C)c1ccc(NC(=O)N2CCC3(CC(c4ccccc4)=NO3)C2)cc1 (centres unmarked) [Compound 371] ?
12

For CCc1ccc(NC(=O)N2CCC3(CC2)CC(c2ccc(C(F)(F)F)cc2)=NO3)cc1 [Compound 167] , what is its reported inhibition at 10 µM?
17.5

Any idea what inhibition at 10 µM was measured for COc1cccc(C2=NOC3(CCN(C(=O)/C=C/c4ccc(C(F)(F)F)nc4)CC3)C2)c1 [Compound 362] ?
19

Query: inhibition at 10 µM; subject: CC(C)(C)c1ccc(NC(=O)N2CCC3(CC2)CC(c2ccc(C(F)(F)F)cc2)=NO3)cc1 [Compound 145]
4.26

---

# targetDesc: vanilloid receptor (VR1) (Homo sapiens, UniProt Q8NER1)
# Construct: expressed in transfected cells; host or cells: CHO K1 cells (ECACC), stably transfected
# assayNotes: Functional testing on vanilloid receptor (VR1): FLIPR Ca2+ inflow assay in CHO K1 cells stably transfected with the VR1 gene
# Assay type: cell-based
# particulars: CHO-K1, stimulation compared to 10 μM CP (capsaicin)
measurementKind: activation at 10 µM
Note: state the figure and append the unit.

>>> result("COc1cccc(C2=NOC3(CCN(C(=S)Nc4ccc(C(C)(C)C)cc4)CC3)C2)c1")
"0.66%"
>>> result("O=C(C=Cc1ccc(C(F)(F)F)cc1)N1CCC2(CC1)CC(c1ccccc1)=NO2")
"0%"
>>> result("O=C(/C=C/c1cccc(Br)c1)N1CCC2(CC1)CC(c1ccccc1)=NO2")
"0%"
>>> result("CC(C)(C)c1ccc(NC(=O)N2CCC3(CC2)CC(c2cccc(Cl)c2)=NO3)cc1")
"8%"
>>> result("CC1CN(C(=O)/C=C/c2ccc(C(F)(F)F)nc2N2CCCCC2)CCC12CC(c1ccccc1)=NO2 (centres unmarked)")
"0%"

Query (compound): CC1CN(C(=O)Nc2ccc(C(C)(C)C)cc2)CCC12CC(c1ccccc1F)=NO2 (centres unmarked) ; field requested: activation at 10 µM
-1%

Endpoint output: activation at 10 µM of `CCc1ccc(NC(=O)N2CCC3(CC2)CC(c2ccc(Cl)cc2)=NO3)cc1` . Value?
-0.04%

What value of measured activation at 10 µM is listed for `CC(C)(C)c1ccc(CCC(=O)N2CCC3(CC2)CC(c2ccccc2)=NO3)cc1` ?
0%
